Reference source for all entries: patent US8039585B2

- Tested on: HUVECs
- protocol: Endothelial cell tube-forming assay on Matrigel
- Assay type: cell-based, human
- Design: key: +: tubes slightly affected; ++: tubes moderately affected; +++: tubes disrupted; ++++: tubes completely disrupted; −: tubes resemble control
- details: truncated versions of C16Y; concentration not given
Ends that are not written are not given here.
reported-property: Activity (tube formation, truncated C16Y peptides)

Below are worked cases with known answers.
{"columns": ["substance", "study-target", "result"],
 "data": [
  ["DFKLFAVY (DFKLFAVY-NH2)", "HUVECs", "++"],
  ["FKLFAVYIKYR [truncated version of C16Y]", "HUVECs", "−"],
  ["LFAVYIKYR [truncated version of C16Y]", "HUVECs", "−"],
  ["AVYIKYR [truncated version of C16Y]", "HUVECs", "−"],
  ["DFKLFAVYIKY [truncated version of C16Y]", "HUVECs", "++"],
  ["DFKLFAVYI [truncated version of C16Y]", "HUVECs", "++"],
  ["VYIKYR", "HUVECs", "−"],
  ["DFKLFAV [truncated version of C16Y]", "HUVECs", "−"]
]}

For KLFAVYIKYR [truncated version of C16Y] , write its Activity (tube formation, truncated C16Y peptides).
−

For DFKLFAVYIK [truncated version of C16Y] , write its Activity (tube formation, truncated C16Y peptides).
++

For DFKLFA , write its Activity (tube formation, truncated C16Y peptides).
−

For FAVYIKYR [truncated version of C16Y] , write its Activity (tube formation, truncated C16Y peptides).
−
